Please provide measured relative viability for the entries that follow.
tested on: NCI-H1734; test: relative viability (nuclei count vs DMSO), 5 days (fraction); higher = more cells survive; conditions: first compound 0.02 µM
One number for each entry.

{"COMPOUND": "CCNC(=O)c1noc(-c2cc(C(C)C)c(O)cc2O)c1-c1ccc(CN2CCOCC2)cc1 [Luminespib] + COc1cc2c(Oc3ccc(NC(=O)C4(C(=O)Nc5ccc(F)cc5)CC4)cc3F)ccnc2cc1OCCCN1CCOCC1 [Foretinib] (partner 0.25 µM)", "relative viability": 0.697}

List relative viability for every entry below, keeping the order given.
1. CCNC(=O)c1noc(-c2cc(C(C)C)c(O)cc2O)c1-c1ccc(CN2CCOCC2)cc1 [Luminespib] + C[C@@H](Oc1cc(-c2cnn(C3CCNCC3)c2)cnc1N)c1c(Cl)ccc(F)c1Cl [Crizotinib] (partner 1 µM)
2. CN1CCN(CCOc2cc(OC3CCOCC3)c3c(Nc4c(Cl)ccc5c4OCO5)ncnc3c2)CC1 [Saracatinib] + N=C(N)NC(=N)NCCc1ccccc1 [Phenformin] (partner 250 µM)

Output:
1. 0.566
2. 0.375

Entry source: the supplement of paper PMC10307832
